- System: U251 CNS
- PROTOCOL: NCI-60 one-dose screen, 48 h (100 = growth as untreated, 0 = no growth, -100 = all killed)
- CONDITION: 10 µM unless noted
The panel holds about 83,000 compounds, 20% with a hit somewhere; the sample as a whole holds those more often.
Grouping by measured growth is done with the following cut points: low class (below 20%), middle class (20% to below 90%), high class (90% or more)

[[record]]
molecule = "ClC1OC(Cl)(Cl)C(Cl)(Cl)OC1(Cl)Cl (configuration not stated)"
label_class = "high class"

[[record]]
molecule = "CN1C2CCC1[C@@H](COC(=O)c1ccccc1)[C@@H](O)C2 (some centres not stated)"
label_class = "high class"

[[record]]
molecule = "CC[C@H](C)[C@H](NC(=O)CN(C)C)C(=O)N(C)[C@H](C[C@@H](OC(C)=O)c1nc(C(=O)NC23C4C5C2C2C3C4C52C(=O)OC)cs1)C(C)C (some centres not stated)"
label_class = "low class"


Categorize the following entry: C[C@@H]1C/C=C\C(=O)O[C@H](/C=C/C#C/C=C/C(C)(C)[C@@H](O)c2cccc(O)c2Br)[C@@H](C)/C=C/[C@H](C)C[C@H](OC(N)=O)C1
middle class

Categorize the following entry: O=[N+]([O-])c1cc(Cl)c(Cl)c([N+](=O)[O-])c1Cl
middle class

Categorize the following entry: CSc1cc(/C=C(\C)[C@@H]2C[C@@H]3O[C@]3(C)CCC[C@H](C)[C@H](O)[C@@H](C)C(=O)C(C)(C)[C@@H](O)CC(=O)O2)n(CCNC(=O)OC(C)(C)C)n1
middle class

Categorize the following entry: CCOP(=O)(OCC)C(=O)N(CC)CC
high class

Categorize the following entry: Nc1c(Cl)c(Cl)nc(C(=O)O)c1Cl
high class

Categorize the following entry: CCN1C(=O)NC(=O)C(C)(N2C(=O)c3c(F)c(F)c(F)c(F)c3C2=O)C1=O (configuration not stated)
low class

Categorize the following entry: c1ccc2c(c1)O[As](O[As]1Oc3ccccc3O1)O2
low class

Categorize the following entry: Cc1ccc(NC2=N[C@]34CC(=O)CC[C@]3(C)[C@H]3CC[C@]5(C)C(=O)CC[C@H]5[C@@H]3C[C@@H]4S2)c(C)c1
low class

----------
- Test system: CAKI-1 renal
- PROTOCOL: NCI-60 one-dose screen, 48 h (100 = growth as untreated, 0 = no growth, -100 = all killed)
- CONDITION: 10 µM unless noted
About 83,000 compounds went through this panel and 20% of them were active in at least one assay; those are over-represented in the sample as a whole.
MEASURED_ENDPOINT: growth (%)
Unit % implied. Number only.

// growth value for O=C(CBr)OCCOC(=O)CBr : 33.5

// growth value for Cc1cc(Br)c([N+](=O)[O-])cc1[N+](=O)[O-] : 88.5

----------
Form field: growth (one value per entry).
- Test system: HT29 colon
- PROTOCOL: NCI-60 one-dose screen, 48 h (100 = growth as untreated, 0 = no growth, -100 = all killed)
- CONDITION: 10 µM unless noted
Compounds without any hit were thinned out: in the full panel of roughly 83,000, 20% have a hit.
Unit % implied. Number only.

[[record]]
molecule = "Nc1cccnc1"
recorded_number = 103


Observed growth on HT29 colon, entry C[C@]12CC[C@H]3[C@@H](CC=C4c5nc(N)sc5CC[C@@]43C)[C@@H]1CC[C@@H]2O , equals 95.5

Observed growth on HT29 colon, entry CO[C@H]1[C@H](O[C@@H]2C[C@@H]3C/C=C/C(=O)O[C@@H](CO)C[C@H](O)[C@@H]4C[C@H](C)[C@H](C/C=C\C=C\[C@H](C)C[C@H](C2)O3)O4)O[C@@H](C)[C@H](O)[C@H]1O , equals 66.1

Observed growth on HT29 colon, entry CCCC(C)SP(=S)(SC(C)CCC)SC(C)CCC (stereo unspecified) , equals 100

Observed growth on HT29 colon, entry CC1(C)S[C@H]2CC[C@H]3OC(=O)[C@@H]1N23 , equals 106

Observed growth on HT29 colon, entry CC[C@H](C)[C@H](NC(=O)[C@H]1CCCCN1C)C(=O)N(C)[C@H](C[C@@H](OC(C)=O)c1nc(C(=O)NC23C4C5C2C2C3C4C52C(=O)OC)cs1)C(C)C (stereo partly specified) , equals -5.46

----------
- System: OVCAR-8 ovarian
- PROTOCOL: NCI-60 one-dose screen, 48 h
- CONDITION: 10 µM unless noted
About 83,000 compounds went through this panel and 20% of them were active in at least one assay; those are over-represented in the sample as a whole. Active and inactive are the calls of the source. The calls were made as follows: active = growth percent below 10; inactive = the rest.
The categories you may choose from are y = active, n = inactive

Please review the following examples before continuing.
[[record]]
compound = "ClC1OC(Cl)(Cl)C(Cl)(Cl)OC1(Cl)Cl (configuration not stated)"
label_class = "n"

[[record]]
compound = "Cc1ccccc1-n1c(/C=C\\c2ccccn2)nc2ccccc2c1=O"
label_class = "n"

[[record]]
compound = "O=C1CN2CCC1CC2"
label_class = "n"

[[record]]
compound = "C#Cc1cccc(Nc2nc(Cl)nc3cc(NC(=O)CF)ccc23)c1"
label_class = "n"

[[record]]
compound = "C[N+]12CCC34C5=CC(=O)C(=O)C=C5[N+]5(C)C(=O)CC6OCC=C(C1)C(CC32)C6C45 (configuration not stated)"
label_class = "n"

[[record]]
compound = "O=C(O)c1ccccc1N(CCO)CCCl"
label_class = "n"

[[record]]
compound = "Cc1nc2ccccc2c(=O)n1-c1ccccc1F"
label_class = "n"

[[record]]
compound = "CCCCS(=O)(=O)Cl"
label_class = "n"

[[record]]
compound = "Cc1ccc(S(=O)(=O)n2cc([C@@]3(O)C[C@H](CSC#N)OC3=O)c3ccccc32)cc1"
label_class = "n"

[[record]]
compound = "O=C(O)C(Br)CBr (configuration not stated)"
label_class = "n"


Next compound, please.
Could you check what this test reported for NC(=O)Oc1cc(OC(N)=O)cc(N(CCCl)CCCl)c1 ?
n

----------
- System: OVCAR-4 ovarian
- PROTOCOL: NCI-60 one-dose screen, 48 h (100 = growth as untreated, 0 = no growth, -100 = all killed)
- CONDITION: 10 µM unless noted
About 83,000 compounds went through this panel and 20% of them were active in at least one assay; those are over-represented in the sample as a whole.
MEASURED_ENDPOINT: growth (%)
Unit % implied. Number only.

Field: example entries. Status: answers known.
[[record]]
compound = "O=C1C=C(N2CC2)c2ccccc2C1=O"
target_entity = "OVCAR-4 ovarian"
measured_endpoint = "growth"
recorded_number = 96.1

[[record]]
compound = "O=C(CBr)OCCOC(=O)CBr"
target_entity = "OVCAR-4 ovarian"
measured_endpoint = "growth"
recorded_number = 38.3

[[record]]
compound = "Cc1cc(Br)c([N+](=O)[O-])cc1[N+](=O)[O-]"
target_entity = "OVCAR-4 ovarian"
measured_endpoint = "growth"
recorded_number = 113


// growth value for CC1(C)CN=C(NN=C(/C=C/c2ccc(C(F)(F)F)cc2)/C=C/c2ccc(C(F)(F)F)cc2)NC1 : -92.3

// growth value for CCN(CC)CCn1c(=O)n(C)c2ccccc21 : 109

// growth value for CC1(C)N=C(N)N=C(N)N1c1ccc(CCC(=O)Nc2ccc(S(=O)(=O)F)cc2)cc1 : 92.8

// growth value for Cc1nnc([S-])o1.[Au+].c1ccc([PH+](c2ccccc2)c2ccccc2)cc1 : 60.4

// growth value for N#CCN(CC#N)[N+](=O)[O-] : 111

// growth value for ClCc1ccc(Cl)c(Cl)c1 : 106

// growth value for O=C1CCCCC1CN1CCCCC1 (centres undefined) : 119

// growth value for COC(=O)C12C3C4C1C1C2C3C41NC(=O)c1csc([C@@H](C[C@H](C(C)C)N(C)C(=O)[C@@H](NC(=O)[C@H]2CCCCN2C)C2CC2)OC(C)=O)n1 (some centres undefined) : 49.9

// growth value for O=S(=O)(F)c1cccc(Cl)c1C[P+](c1ccccc1)(c1ccccc1)c1ccccc1 : 90.2

// growth value for O=C(Cc1ccccc1)c1ccccc1 : 99.3

// growth value for CC[CH2][Sn]([Cl])([Cl])[CH2]CC.Oc1ccccc1C=NCCN=Cc1ccccc1O : 69.6

----------
- Tested on: ACHN renal
- PROTOCOL: NCI-60 one-dose screen, 48 h
- CONDITION: 10 µM unless noted
About 83,000 compounds went through this panel and 20% of them were active in at least one assay; those are over-represented in the sample as a whole. The source made the active and inactive calls. Rule for the calls: active = growth percent below 10; inactive = the rest.
The categories you may choose from are 1.0 (active), 0.0 (inactive)

Please review the following examples before continuing.
[[record]]
compound = "CC1(C)C=Cc2c(ccc3c2[N+]([O-])=C2C3=C[C@@]34NC(=O)[C@]5(CCCN5C3=O)C[C@@H]4C2(C)C)O1"
target_entity = "ACHN renal"
label_class = 0.0

[[record]]
compound = "Cc1ccc(N2CCN(CCC#N)CC2)cc1"
target_entity = "ACHN renal"
label_class = 0.0

[[record]]
compound = "CC[PH+](CC)CC.O=COC1OC([S-])C(OC=O)C(OC=O)C1OC=O.[Au+] (stereo unspecified)"
target_entity = "ACHN renal"
label_class = 1.0

[[record]]
compound = "C[Se]/C=C1/C(=O)N(c2c(Cl)cccc2Cl)c2ccccc21"
target_entity = "ACHN renal"
label_class = 0.0


Could you check what this test reported for COc1ccc2c(c1)C1(C)CCN(C)CC(C1)C2O (stereo unspecified) ?
0.0

Could you check what this test reported for CC1=C(C)C(=O)O[C@@H]([C@](C)(O)[C@]2(O)CC[C@@]3(O)[C@@H]4C[C@H]5O[C@]56CC=CC(=O)[C@]6(C)[C@H]4CC[C@]23C)C1 ?
1.0

Could you check what this test reported for Cn1cc(-c2csc(-c3cn(CCCCN4CCOCC4)c4ccc(F)cc34)n2)c2cccnc21 ?
0.0

Could you check what this test reported for COC(=O)C1=CCCN(C)C1 ?
0.0

Could you check what this test reported for CCCn1cc2c3c(cccc31)[C@H]1C[C@@H](C)CN(C)[C@@H]1C2 ?
0.0

Could you check what this test reported for Oc1cc(N2CC2)c(O)cc1N1CC1 ?
1.0

Could you check what this test reported for Cc1cc2c(cc1-c1ccnc(/C=C/C(=O)O)c1)C(C)(C)CCC2(C)C ?
0.0

Could you check what this test reported for OCCNC1CCCCC1 ?
0.0

Could you check what this test reported for CCCCn1c(=O)c(C(=O)NCc2ccccc2Cl)c(O)c2ccccc21 ?
0.0

Could you check what this test reported for CCC1(NC(=O)c2cc(F)c(F)c(F)c2F)C(=O)NC(=O)N(C(C)C)C1=O (stereo unspecified) ?
0.0
